molecules and their reported Population Hoechst High Intensity Objects (%)
System: U2OS
Test: Multiplex assay against U2OS
Assay type: toxicity, cell-based
Conditions: human, 12 h, 10 µM, compound concentration 10 uM, replicate 1
Could you give me the number in %? Just the number is fine.

Answered cases to consult:
Cc1nc(-c2ccc(-c3ccc(C(=O)N4CCc5cc6c(cc54)C4(CCN(C)CC4)CO6)cc3)c(C)c2)no1 :: 7
CN1C(=O)c2sccc2N(C)c2nc(Nc3ccc(S(N)(=O)=O)cc3)ncc21 :: 1
Cc1nc(-c2cn3c(n2)-c2ccc(-c4cnn(C(C)(C)C(N)=O)c4)cc2OCC3)n(C(C)C)n1 :: 2

So what's the measured Population Hoechst High Intensity Objects (%) for this one? O=C1NCN(c2ccccc2)C12CCN(CCCOc1ccc(F)cc1)CC2 [SPIRAMIDE]
10

So what's the measured Population Hoechst High Intensity Objects (%) for this one? CCN(CC)CCCCNc1ncc2cc(-c3cc(OC)cc(OC)c3)c(NC(=O)NC(C)(C)C)nc2n1
19

So what's the measured Population Hoechst High Intensity Objects (%) for this one? CN1CCN(CCOc2cc(OC3CCOCC3)c3c(Nc4c(Cl)ccc5c4OCO5)ncnc3c2)CC1
8

So what's the measured Population Hoechst High Intensity Objects (%) for this one? Cc1c(-c2ccc(O)cc2)n(Cc2ccc(OCCN3CCCCCC3)cc2)c2ccc(O)cc12
4

So what's the measured Population Hoechst High Intensity Objects (%) for this one? Cc1nc(Nc2n[nH]c3c2CN(C(=O)N[C@H](CN(C)C)c2ccccc2)C3(C)C)c2sccc2n1
3

====

System: Fibroblast
Assay: Multiplex assay against human fibroblast
Format: toxicity, cell-based
Details: 12 h, 1 µM, compound concentration 1 uM, replicate 1
compounds and their reported Population Membrane Permeable-Phenotype (%)
Could you give me the number in %? Just the number is fine.

CN1CCCC(n2nc(Cc3ccc(Cl)cc3)c3ccccc3c2=O)CC1.Cl (centres undefined) [AZELASTINE HYDROCHLORIDE] :: 26
CN1CCN(CCOc2cc(OC3CCOCC3)c3c(Nc4c(Cl)ccc5c4OCO5)ncnc3c2)CC1 :: 24

So what's the measured Population Membrane Permeable-Phenotype (%) for this one? C=CC(=O)Nc1cc2c(Nc3ccc(F)c(Cl)c3)ncnc2cc1OCCCN1CCOCC1.Cl.Cl [CANERTINIB DIHYDROCHLORIDE]
28

So what's the measured Population Membrane Permeable-Phenotype (%) for this one? CN(C)C(=O)N[C@H]1CC[C@H](CCN2CCN(c3cccc(Cl)c3Cl)CC2)CC1.Cl [CARIPRAZINE HYDROCHLORIDE]
32

====

System: U2OS
Experiment: Multiplex assay against U2OS
Format: toxicity, cell-based
Conditions: human, 24 h, 10 µM, compound concentration 10 uM, replicate 2
READOUT KIND: Population Hoechst High Intensity Objects (%)
Could you give me the number in %? Just the number is fine.

Please provide the recorded Population Hoechst High Intensity Objects (%) for COc1cccc([C@@H](C)NCCCc2ccccc2Cl)c1.Cl [TECALCET HYDROCHLORIDE] , tested on U2OS.
8

Please provide the recorded Population Hoechst High Intensity Objects (%) for COc1cc2nccc(Oc3ccc(NC(=O)Nc4cc(C)on4)c(Cl)c3)c2cc1OC.O , tested on U2OS.
3

Please provide the recorded Population Hoechst High Intensity Objects (%) for Cn1c(-c2csc(C3CCN(CC4=NC5N=CC=CC5N4)CC3)n2)nc2ccccc21 (configuration not stated) [BAY-070] , tested on U2OS.
12

Please provide the recorded Population Hoechst High Intensity Objects (%) for Cl.N#Cc1ccc2[nH]cc(CCCCN3CCN(c4ccc5oc(C(N)=O)cc5c4)CC3)c2c1 [VILAZODONE HYDROCHLORIDE] , tested on U2OS.
18

Please provide the recorded Population Hoechst High Intensity Objects (%) for CN(C)C(=O)/C(C#N)=C/c1ccc(-c2nc3cnc4[nH]ccc4c3n2C2CCCCC2)o1 , tested on U2OS.
54

Please provide the recorded Population Hoechst High Intensity Objects (%) for CNc1nc(NCc2ccc(NS(C)(=O)=O)cc2Cl)cc(-c2ccccn2)n1 , tested on U2OS.
10

Please provide the recorded Population Hoechst High Intensity Objects (%) for CN(C)C(=O)N[C@H]1CC[C@H](CCN2CCN(c3cccc(Cl)c3Cl)CC2)CC1.Cl [CARIPRAZINE HYDROCHLORIDE] , tested on U2OS.
3

Please provide the recorded Population Hoechst High Intensity Objects (%) for CN1CCN(c2ccc(OC(F)(F)F)c(Nc3ncc4c(n3)-c3c(c(C(N)=O)nn3CCO)CC4)c2)CC1 [ONVANSERTIB] , tested on U2OS.
16

Please provide the recorded Population Hoechst High Intensity Objects (%) for Cn1cc(-c2[nH]c3cc(NC(=O)[C@H](N)C4CCCCC4)cc4c3c2C=NNC4=O)cn1 , tested on U2OS.
16

Please provide the recorded Population Hoechst High Intensity Objects (%) for CN1CCN(CCOc2cc(OC3CCOCC3)c3c(Nc4c(Cl)ccc5c4OCO5)ncnc3c2)CC1 [SARACATINIB] , tested on U2OS.
8

Please provide the recorded Population Hoechst High Intensity Objects (%) for Cc1nc(-c2ccc(-c3ccc(C(=O)N4CCc5cc6c(cc54)C4(CCN(C)CC4)CO6)cc3)c(C)c2)no1 [SB-224289] , tested on U2OS.
11

Please provide the recorded Population Hoechst High Intensity Objects (%) for CC(C)(O)CNc1ncc(-c2ccnc(Nc3ccnc(Cl)c3)n2)c(CC2CC2)n1 , tested on U2OS.
14

Please provide the recorded Population Hoechst High Intensity Objects (%) for Cc1nc(-c2cn3c(n2)-c2ccc(-c4cnn(C(C)(C)C(N)=O)c4)cc2OCC3)n(C(C)C)n1 [TASELISIB] , tested on U2OS.
4

Please provide the recorded Population Hoechst High Intensity Objects (%) for CCN(CC)CCCCNc1ncc2cc(-c3cc(OC)cc(OC)c3)c(NC(=O)NC(C)(C)C)nc2n1 [PD-173074] , tested on U2OS.
21

Please provide the recorded Population Hoechst High Intensity Objects (%) for C=CC(=O)Nc1cc2c(Nc3ccc(F)c(Cl)c3)ncnc2cc1OCCCN1CCOCC1.Cl.Cl [CANERTINIB DIHYDROCHLORIDE] , tested on U2OS.
8

====

System: Fibroblast
Assay: Multiplex assay against human fibroblast
Assay type: toxicity, cell-based
Conditions: 48 h, 10 µM, compound concentration 10 uM, replicate 1
READOUT KIND: Population Fragmented Nuclei (%)
Could you give me the number in %? Just the number is fine.

Answered cases to consult:
Cc1c(-c2ccc(O)cc2)n(Cc2ccc(OCCN3CCCCCC3)cc2)c2ccc(O)cc12 :: 39
CN(C)C(=O)/C(C#N)=C/c1ccc(-c2nc3cnc4[nH]ccc4c3n2C2CCCCC2)o1 :: 28
CN1CCN(CCOc2cc(OC3CCOCC3)c3c(Nc4c(Cl)ccc5c4OCO5)ncnc3c2)CC1 :: 31
CN1CCN(c2ccc(OC(F)(F)F)c(Nc3ncc4c(n3)-c3c(c(C(N)=O)nn3CCO)CC4)c2)CC1 :: 46
C=CC(=O)Nc1cccc(C(=O)Nc2ccc(Nc3cc(-c4[nH]c(SC)nc4C)ccn3)cc2)c1 :: 37
CC(C)(O)CNc1ncc(-c2ccnc(Nc3ccnc(Cl)c3)n2)c(CC2CC2)n1 :: 49
C[C@@]1(C(=O)Nc2ccc(F)nc2)CCCN1c1nc(Nc2cc(C3CC3)n[nH]2)c2cccn2n1 :: 35

We now examine a further molecule.
So what's the measured Population Fragmented Nuclei (%) for this one? Cc1cc(C)cc(-c2cnc3cc(Cl)c(-c4cccc(O)c4)cc3c2OCCCN)c1
45

====

Test system: U2OS
Assay: Multiplex assay against U2OS
Format: toxicity, cell-based
Conditions: human, 12 h, 1 µM, compound concentration 1 uM, replicate 1
The threshold is 10%. Values of Population Fragmented Nuclei (%) beneath it are tagged MET; values meeting or exceeding it are tagged NOT MET.

Does the reported Population Fragmented Nuclei (%) of the following compound sit strictly below 10%? CN(C)C(=O)N[C@H]1CC[C@H](CCN2CCN(c3cccc(Cl)c3Cl)CC2)CC1.Cl [CARIPRAZINE HYDROCHLORIDE]
NOT MET

====

Test system: HEK-293T
Test: Multiplex assay against HEK293T
Type: toxicity, cell-based
Settings: human, 12 h, 1 µM, compound concentration 1 uM, replicate 1
The threshold is 2%. Values of Population Membrane Permeable-Phenotype (%) beneath it are tagged T; values meeting or exceeding it are tagged F.

Here are 4 molecules together with their reported answers.
C=CC(=O)Nc1cc2c(Nc3ccc(F)c(Cl)c3)ncnc2cc1OCCCN1CCOCC1.Cl.Cl [CANERTINIB DIHYDROCHLORIDE] :: F
c1cn2cc(-c3ccc4cn[nH]c4c3)nc(Nc3ccc(N4CCOCC4)cc3)c2n1 :: T
COc1cc(-n2cnc3cc(-c4ccc(Cl)cc4)sc3c2=O)ccc1OCCN1CCCC1 :: T
CNc1nc(NCc2ccc(NS(C)(=O)=O)cc2Cl)cc(-c2ccccn2)n1 :: F

Does the reported Population Membrane Permeable-Phenotype (%) of the following molecule sit strictly below 2%? CN(C)C(=O)N[C@H]1CC[C@H](CCN2CCN(c3cccc(Cl)c3Cl)CC2)CC1.Cl [CARIPRAZINE HYDROCHLORIDE]
T

Origin of the recorded values: ChEMBL document CHEMBL4689842
